- System: RBM10 RRM1-ZnF-RRM2 (GST-tagged construct);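 also: 20 pmol protein with 1.5 nmol RNA pool for 30 min at 4°C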
- protocol-summary: RNAcompete 7-mer binding Z-score; higher = stronger binding preference
Whole data set: some 16,000 sequences, median “Z-score” near -0.37, cut for the highest 2% near 3.1. The entries come from a sample that favours the highest values as a whole.
# RNAcompete 7-mer binding Z-score values compiled below
test-readout: RNAcompete 7-mer binding Z-score

GGCGGGC; 1.97
UCCCCAA; -0.639
GACAAGC; -0.0233
GCCAAAC; -0.573
CCGUCGC; -0.752
AAAAUUU; -0.544
GACAAGU; 0.148
AAGUGCG; 0.698
CCCACCC; -0.337
CCGUAUC; -0.876
CGCUGGA; -0.027
